Each record here notes measured composite z-score.
Experiment: binders of probe aFST on microarray, primary screen, stem cell growth factor project, biochemical, small-molecule microarray, fluorescence 635/667 (AID 1086);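 also: score merges 667 nm fluorescence with signal-to-noise of each printed compound spot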
Details: higher = more signal

{"compound": "COCCOC(=O)N1C(=O)[C@@]2(c3cc(C#CCCO)ccc31)[C@H](C(=O)Nc1nc3ccccc3s1)[C@H]1C(=O)O[C@H](c3ccccc3)[C@H](c3ccccc3)N1[C@@H]2c1ccc(OCCO)cc1", "composite z-score": 0.464}
{"compound": "O=C1OCCC/C=C\\[C@H]2OC34C=CCN(c5ccc6ccccc6c5)C(=O)[C@H]3N(CCCCCCO)C(=O)[C@@H]4C12 (stereo partly specified)", "composite z-score": -0.307}
{"compound": "CC(C)c1ccc(NN2C(C(O)C(c3ccccc3)c3ccccc3)C=CC3C(=O)N(c4ccccc4)C(=O)C32)cc1 (stereo unspecified)", "composite z-score": 1.25}
{"compound": "CC(=O)NCCCC[C@@H]1NC(=O)[C@@H]2C[C@H](C(=O)NCCCCCCNC(=O)CS)[C@H](c3cccc(OCCO)c3)N2C1=O", "composite z-score": 0.414}
{"compound": "COCCOC(=O)N1C(=O)[C@@]2(c3cc(C#CC4=CCCCC4)ccc31)[C@H](C(=O)Nc1nc3ccccc3s1)[C@H]1C(=O)O[C@H](c3ccccc3)[C@H](c3ccccc3)N1[C@@H]2c1ccc(OCCO)cc1", "composite z-score": 0.146}
{"compound": "O=C1O[C@H](c2ccccc2)[C@H](c2ccccc2)N2[C@H]1[C@@H](C(=O)NC[C@H](O)c1ccccc1)[C@]1(C(=O)Nc3ccccc31)[C@H]2c1ccc(OCCO)cc1", "composite z-score": 0.368}
